Record form. Attribute: pIC50. Fill in for each entry.
ASSAY_TARGET: T1, HLA-DR DRB1*0404 (human)
T1 chain 1: not shown
T1 chain 2: not shown
PROCEDURE_DETAILS: radioligand inhibition, purified HLA-DR
RUN_PARAMETERS: remark: other sources report otherwise
Answers are plain numbers, as −log10 of the molar value.

Please review the entries below; each comes with its answer.
                                     binder  observed_value
0       ERGPLEHLYSLHIPN [Peptide 9019.0190]            7.54
1       CHLFYNEQQEARGVH [Peptide 9019.0023]            5.50
2       FRELVSEFSRMARDP [Peptide 9019.0096]            7.29
3  VCGIQNSVSANRSDP [CEA.570 peptide 9012.0135]            7.54
4  GYVIGTQQATPGPAY [CEA.81 peptide 9019.0110]            7.47

Pending binder:
Challenge: What measured pIC50 goes with RPRFRELVSEFSRMA [Peptide 9019.0095] ?
Response given: 7.21

This collection of values is drawn from patent US20100310640A1.
